- System: L1210 leukemia ip in BDF1 mice, survival T/C
- experimental_details: NCI In Vivo Anticancer Drug Screen. Data for tumor model L1210 Leukemia (intraperitoneal) in B6D2F1 (BDF1) mice
- conditions_used: endpoint: mean survival time; dose: 200.0 mg/kg/injection; schedule: Q04DX003 (ip); vehicle: carboxymethylcellulose (CMC); higher = longer survival
Toxic doses and inconclusive results are not listed.

{"columns": ["compound", "T/C"],
 "data": [
  ["O=C(N/N=C/c1cccc([N+](=O)[O-])c1)C(O)C(O)C(O)C(O)CO (stereo not drawn)", "100 % of control"],
  ["O=C(/C=C/c1cccc(Cl)c1)c1ccc(Cl)cc1", "96 % of control"],
  ["O=C(Nc1ccc(C(=O)O)c(O)c1)Nc1ccccc1C(F)(F)F", "89 % of control"]
]}
